Target: NS3 (Hepatitis C virus, UniProt A3EZJ3)
Sequence (A3EZJ3 whole entry, the tested form may be a part): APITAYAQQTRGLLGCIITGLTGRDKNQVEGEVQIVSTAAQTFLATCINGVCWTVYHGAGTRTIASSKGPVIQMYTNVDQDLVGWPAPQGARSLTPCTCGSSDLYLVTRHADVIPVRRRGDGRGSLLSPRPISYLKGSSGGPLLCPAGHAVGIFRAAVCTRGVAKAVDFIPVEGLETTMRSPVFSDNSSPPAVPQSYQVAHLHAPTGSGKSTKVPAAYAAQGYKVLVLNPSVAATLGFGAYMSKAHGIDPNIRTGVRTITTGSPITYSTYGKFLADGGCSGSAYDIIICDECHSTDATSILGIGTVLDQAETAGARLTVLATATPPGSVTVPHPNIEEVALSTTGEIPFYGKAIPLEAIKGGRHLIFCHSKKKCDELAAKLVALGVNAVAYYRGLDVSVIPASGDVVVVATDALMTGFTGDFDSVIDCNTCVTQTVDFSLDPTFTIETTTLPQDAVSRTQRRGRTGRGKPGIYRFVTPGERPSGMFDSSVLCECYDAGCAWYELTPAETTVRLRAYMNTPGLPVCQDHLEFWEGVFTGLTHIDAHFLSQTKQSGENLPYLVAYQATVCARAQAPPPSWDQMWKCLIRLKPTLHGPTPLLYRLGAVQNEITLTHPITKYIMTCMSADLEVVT
Test: Ability to inhibit the hydrolysis of chromogenic […] ester from the peptide fragment Ac- DTEDVVP(Nva)-O-4-PAP in a HCV protease continuous assay
Parameters: species or system Hepacivirus hominis
ENDPOINT: Ki (nM)
Use nM as the unit, but write only the number.

Please look at this compound and report its Ki: CCC[C@H](NC(=O)[C@@H]1Cc2cccc(c2)Oc2ccc(cc2)CCCCC(=O)N[C@@H](C2CCCCC2)C(=O)N1)C(=O)C(=O)NCC(=O)N[C@H](C(=O)O)c1ccccc1
300
